# target.or.system: hS1P1 (Homo sapiens)
# Sequence (P21453 whole entry): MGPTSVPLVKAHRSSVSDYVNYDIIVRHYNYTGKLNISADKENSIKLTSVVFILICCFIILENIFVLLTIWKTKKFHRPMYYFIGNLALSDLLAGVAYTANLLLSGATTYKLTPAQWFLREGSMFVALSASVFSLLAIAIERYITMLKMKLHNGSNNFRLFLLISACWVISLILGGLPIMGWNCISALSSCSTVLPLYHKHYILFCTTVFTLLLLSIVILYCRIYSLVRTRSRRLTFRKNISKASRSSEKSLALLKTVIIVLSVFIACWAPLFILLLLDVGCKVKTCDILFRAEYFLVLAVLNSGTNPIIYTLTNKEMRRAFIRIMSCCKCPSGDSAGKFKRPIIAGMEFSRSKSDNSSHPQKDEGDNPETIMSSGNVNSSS
# assay.details: Tango β-arrestin recruitment assay, Tango-hS1P1-CHO
# condition: final concentration 45 µM, 9 serial dilutions at 5-fold intervals; 20 h drug treatment; luciferase readout
Item-by-item account of log10 EC50
Field: value | Transform: log10 | Quantity: EC50 | Unit: nM

Below, each entry is followed by its recorded log10 EC50 result.
Problem: Which log10 EC50 is reported for this compound? CCc1cc(/C(C)=N/OCc2ccc(-c3cnc(F)cn3)c(C)c2)ccc1CN1CCC(C(=O)O)CC1
Solution: 3.77

Problem: Follow-up entry: CCc1cc(/C(C)=N/OCc2ccc(-c3cnc(F)cn3)c(C)c2)ccc1CN1CC[C@@H](C(=O)O)C1
Solution: 2.10

Problem: Follow-up entry: CCc1cc(/C(C)=N/OCc2ccc(-c3cnc(F)cn3)cc2)ccc1CN1CC[C@H](C(=O)O)C1
Solution: 3.72

Problem: Follow-up entry: C/C(=N\OCc1ccc(C2CCCCC2)c(C(F)(F)F)c1)c1ccc(CN2CC(C(=O)O)C2)c(F)c1
Solution: 0.75

Problem: Follow-up entry: CCc1cc(/C(C)=N/OCc2cccc(C(F)(F)F)c2)ccc1CN1CC(C(=O)O)C1
Solution: 3.71

More entries:
Problem: Which log10 EC50 is reported for this compound? CCc1cc(/C(C)=N/OCc2ccc(-c3cnc(F)cn3)c(C)c2F)ccc1CN1CC[C@H](C(=O)O)C1
Solution: 2.54

Problem: Follow-up entry: CCc1cc(/C(C)=N/OCc2ccc(C3CCCC3)c(C(F)(F)F)c2)ccc1CN1CC(C(=O)O)C1
Solution: 0.34
